Could you please report measured pIC50 for the items listed next?
The meaning of pIC50 here: minus log10 of the concentration in molar units.

Query: Please look at `Nc1c(/N=N/c2ccc([N+](=O)[O-])cc2)c(S(=O)(=O)O)cc2cc(S(=O)(=O)O)c(/N=N/c3ccccc3)c(O)c12` and tell me its recorded pIC50 on HCoV-NL63 S1 – hACE2 (Human coronavirus NL63).
Sequence (Q6Q1S2 19-717 limits assumed): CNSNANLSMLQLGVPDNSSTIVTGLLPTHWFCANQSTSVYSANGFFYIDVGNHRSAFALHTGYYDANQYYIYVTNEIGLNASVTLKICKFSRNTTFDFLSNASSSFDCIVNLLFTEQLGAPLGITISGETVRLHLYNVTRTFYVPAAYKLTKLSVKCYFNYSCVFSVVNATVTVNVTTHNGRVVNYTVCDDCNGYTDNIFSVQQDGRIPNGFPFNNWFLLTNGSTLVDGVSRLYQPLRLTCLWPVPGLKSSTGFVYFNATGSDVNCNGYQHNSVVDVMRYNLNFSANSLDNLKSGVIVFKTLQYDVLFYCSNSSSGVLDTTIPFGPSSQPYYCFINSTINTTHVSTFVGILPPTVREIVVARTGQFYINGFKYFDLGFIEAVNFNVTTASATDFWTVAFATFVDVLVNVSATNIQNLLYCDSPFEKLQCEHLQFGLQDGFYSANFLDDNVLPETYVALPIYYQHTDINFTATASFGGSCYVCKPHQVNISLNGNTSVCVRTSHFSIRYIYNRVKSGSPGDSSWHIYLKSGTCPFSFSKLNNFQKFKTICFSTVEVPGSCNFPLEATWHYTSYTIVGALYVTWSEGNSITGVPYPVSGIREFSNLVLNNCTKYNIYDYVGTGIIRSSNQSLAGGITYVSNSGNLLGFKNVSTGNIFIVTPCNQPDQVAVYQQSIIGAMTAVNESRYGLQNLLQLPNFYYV
Result: 4.23

Query: Please look at `O=C(Nc1ccc(-c2ccc(C(=O)Nc3cccc4c(S(=O)(=O)O)cccc34)cc2)cc1)c1ccc([N+](=O)[O-])cc1` and tell me its recorded pIC50 on HCoV-NL63 S1 – hACE2 (Human coronavirus NL63).
Result: 5.18

Query: Please look at `O=C(Nc1ccc(-c2ccc(C(=O)Nc3cccc4cc(S(=O)(=O)O)ccc34)cc2)cc1)c1ccc([N+](=O)[O-])cc1` and tell me its recorded pIC50 on HCoV-NL63 S1 – hACE2 (Human coronavirus NL63).
Result: 5.38

The reported measurements were obtained from paper PMC9504289.
